Test: Maximum solubility of ticagrelor in HPβCD solution without heat
Format: physicochemical
Details: HPβCD solution 33% w/w, aqueous with cosolvent or surfactant or cyclodextrin, HPβCD 33% w/W, read-out: Ticagrelor mg/ml (maximum solubility)
property.name: solubility

* CCCSc1nc(N[C@@H]2C[C@H]2c2ccc(F)c(F)c2)c2nnn([C@@H]3C[C@H](OCCO)[C@@H](O)[C@H]3O)c2n1 | 9 mg/mL

---

Experiment: Maximum solubility of ticagrelor in HPβCD solution without heat
Format: physicochemical
Details: HPβCD solution 30% w/w, aqueous with cosolvent or surfactant or cyclodextrin, HPβCD 30% w/W, read-out: Ticagrelor mg/ml (maximum solubility)
property.name: solubility (mg/mL)

- CCCSc1nc(N[C@@H]2C[C@H]2c2ccc(F)c(F)c2)c2nnn([C@@H]3C[C@H](OCCO)[C@@H](O)[C@H]3O)c2n1: 8
